# ED50 listing for each entry below
system: Mus musculus; assay: Anticonvulsant activity against scMet-induced seizures in ip dosed mouse; assay type: functional
RECORDED ENDPOINT: ED50

[[record]]
compound = "C[C@@H](CO)NCc1ccc2oc3cc(Cl)ccc3c(=O)c2c1"
result = "> 350 mg/kg"

[[record]]
compound = "O=C1NC(=O)C(c2ccccc2)(c2ccccc2)N1"
result = "> 50 mg/kg"

[[record]]
compound = "CCCC(CCC)C(=O)[O-].[Na+] [VALPROATE SODIUM]"
result = "290 mg/kg"

[[record]]
compound = "C[C@H](CO)NCc1ccc2oc3cc(Cl)ccc3c(=O)c2c1"
result = "> 500 mg/kg"

[[record]]
compound = "NC(=O)N1c2ccccc2C=Cc2ccccc21 [CARBAMAZEPINE]"
result = "> 50 mg/kg"


====

# EC50 listing for each entry below
assay: Displacement of [3H]flunitrazepam from benzodiazepine receptor in rat brain cortex by scintillation counting; format: tissue-based
RECORDED ENDPOINT: EC50 (µM)

[[record]]
item_smiles = "C[C@@H](CO)NCc1ccc2oc3cc(Cl)ccc3c(=O)c2c1"
recorded_endpoint = "EC50"
result_number = 30

[[record]]
item_smiles = "CN1C(=O)CN=C(c2ccccc2)c2cc(Cl)ccc21"
recorded_endpoint = "EC50"
result_number = 0.7


====

system: Mus musculus; assay: Neurotoxicity in mouse at 30 mg/kg, ip after 4 hrs by rotarod test; format: toxicity, organism-based; set-up: dose 30 mg/kg, route intraperitoneal; conditions: in vivo
RECORDED ENDPOINT: Neurotoxicity

[[record]]
compound = "O=c1c2ccc(Cl)cc2oc2ccc(CNCCCCCO)cc12"
target_desc = "Mus musculus"
result = "Not Active"

[[record]]
compound = "CCC(O)CNCc1ccc2oc3cc(Cl)ccc3c(=O)c2c1 (racemic)"
target_desc = "Mus musculus"
result = "Not Active"

[[record]]
compound = "O=C(N[C@@H]1CCCC[C@H]1O)c1ccc2oc3ccccc3c(=O)c2c1 (racemic)"
target_desc = "Mus musculus"
result = "Not Active"

[[record]]
compound = "CCOC(=O)CNC(=O)c1ccc2oc3ccccc3c(=O)c2c1"
target_desc = "Mus musculus"
result = "Not Active"

[[record]]
compound = "Cl.O=c1c2ccc(Cl)cc2oc2ccc(CNCCCO)cc12"
target_desc = "Mus musculus"
result = "Not Active"

[[record]]
compound = "C[C@@H](CO)NCc1ccc2oc3cc(Cl)ccc3c(=O)c2c1"
target_desc = "Mus musculus"
result = "Not Active"

[[record]]
compound = "O=C(NCCCCO)c1ccc2oc3ccccc3c(=O)c2c1"
target_desc = "Mus musculus"
result = "Not Active"

[[record]]
compound = "CC(CCl)NCc1ccc2oc3cc(Cl)ccc3c(=O)c2c1.Cl (racemic)"
target_desc = "Mus musculus"
result = "Not Active"

[[record]]
compound = "CC(C)(CCO)NCc1ccc2oc3cc(Cl)ccc3c(=O)c2c1"
target_desc = "Mus musculus"
result = "Not Active"

[[record]]
compound = "C[C@@H](CCl)NCc1ccc2oc3cc(Cl)ccc3c(=O)c2c1.Cl"
target_desc = "Mus musculus"
result = "Not Active"

[[record]]
compound = "CN(CCO)Cc1ccc2oc3cc(Cl)ccc3c(=O)c2c1"
target_desc = "Mus musculus"
result = "Not Active"


====

test system: Mus musculus; assay: Anticonvulsant activity against maximal electroshock-induced seizures in mouse at 300 mg/kg, ip after 0.5 hrs; assay type: functional, organism-based; design: dose 300 mg/kg
The source made the active and inactive calls. The calls are words filed in the database; no cut-off is given here.
Labels: active, inactive

[[record]]
compound = "O=C(NCCCCO)c1ccc2oc3ccccc3c(=O)c2c1"
category_label = "inactive"

[[record]]
compound = "CCOC(=O)CNC(=O)c1ccc2oc3ccccc3c(=O)c2c1"
category_label = "inactive"

[[record]]
compound = "C[C@H](CO)NCc1ccc2oc3cc(Cl)ccc3c(=O)c2c1"
category_label = "active"

[[record]]
compound = "CC(CO)NC(=O)c1ccc2oc3ccccc3c(=O)c2c1 (configuration not stated)"
category_label = "inactive"

[[record]]
compound = "O=C(N[C@@H]1CCCC[C@H]1O)c1ccc2oc3ccccc3c(=O)c2c1 (racemic)"
category_label = "inactive"

[[record]]
compound = "C[C@@H](CCl)NCc1ccc2oc3cc(Cl)ccc3c(=O)c2c1.Cl"
category_label = "active"

[[record]]
compound = "CC(CO)NC(=O)c1ccc2oc3cc(Cl)ccc3c(=O)c2c1 (racemic)"
category_label = "inactive"

[[record]]
compound = "C[C@@H](O)CNCc1ccc2oc3cc(Cl)ccc3c(=O)c2c1"
category_label = "active"

[[record]]
compound = "C[C@@H](CO)N(C)Cc1ccc2oc3cc(Cl)ccc3c(=O)c2c1"
category_label = "active"

[[record]]
compound = "CC(CCl)N(C)Cc1ccc2oc3cc(Cl)ccc3c(=O)c2c1.Cl (configuration not stated)"
category_label = "active"

[[record]]
compound = "CN(CCO)Cc1ccc2oc3cc(Cl)ccc3c(=O)c2c1"
category_label = "inactive"

[[record]]
compound = "CC(CCl)NCc1ccc2oc3cc(Cl)ccc3c(=O)c2c1.Cl (racemic)"
category_label = "inactive"

[[record]]
compound = "C[C@@H](CO)NCc1ccc2oc3cc(Cl)ccc3c(=O)c2c1"
category_label = "active"

[[record]]
compound = "CCC(O)CNCc1ccc2oc3cc(Cl)ccc3c(=O)c2c1 (racemic)"
category_label = "active"

[[record]]
compound = "CC[C@@H](CO)NCc1ccc2oc3cc(Cl)ccc3c(=O)c2c1"
category_label = "active"

[[record]]
compound = "C[C@H](O)CNCc1ccc2oc3cc(Cl)ccc3c(=O)c2c1"
category_label = "active"

[[record]]
compound = "O=c1c2ccc(Cl)cc2oc2ccc(CNCCCCCO)cc12"
category_label = "active"

[[record]]
compound = "CC[C@H](CO)NCc1ccc2oc3cc(Cl)ccc3c(=O)c2c1"
category_label = "active"

[[record]]
compound = "CC(C)(CCO)NCc1ccc2oc3cc(Cl)ccc3c(=O)c2c1"
category_label = "active"

[[record]]
compound = "NC(=O)CNC(=O)c1ccc2oc3ccccc3c(=O)c2c1"
category_label = "inactive"

[[record]]
compound = "O=c1c2ccc(Cl)cc2oc2ccc(CNCCO)cc12"
category_label = "active"

[[record]]
compound = "Cl.O=c1c2ccc(Cl)cc2oc2ccc(CNCCCO)cc12"
category_label = "active"


====

test system: Mus musculus; experiment: Anticonvulsant activity against maximal electroshock-induced seizures in mouse at 30 mg/kg, ip after 0.5 hrs; format: functional, organism-based; parameters: dose 30 mg/kg
Calls of active or inactive are those of the source. The rule behind the calls is not given here.
RECORDED ENDPOINT: Activity

[[record]]
item_smiles = "Cl.O=c1c2ccc(Cl)cc2oc2ccc(CNCCCO)cc12"
result = "inactive"

[[record]]
item_smiles = "C[C@@H](CO)NCc1ccc2oc3cc(Cl)ccc3c(=O)c2c1"
result = "inactive"

[[record]]
item_smiles = "CCN(CCO)Cc1ccc2oc3cc(Cl)ccc3c(=O)c2c1"
result = "inactive"

[[record]]
item_smiles = "C[C@@H](CO)N(C)Cc1ccc2oc3cc(Cl)ccc3c(=O)c2c1"
result = "inactive"

[[record]]
item_smiles = "O=c1c2ccc(Cl)cc2oc2ccc(CNCCCCCO)cc12"
result = "inactive"

[[record]]
item_smiles = "C[C@@H](CCl)NCc1ccc2oc3cc(Cl)ccc3c(=O)c2c1.Cl"
result = "inactive"


====

test system: Rattus norvegicus; assay: Neurotoxicity in rat at 30 mg/kg, po after 2 hrs by rotarod test; type: toxicity, organism-based; parameters: dose 30 mg/kg, route oral; conditions: in vivo
RECORDED ENDPOINT: Neurotoxicity

[[record]]
compound = "CCC(O)CNCc1ccc2oc3cc(Cl)ccc3c(=O)c2c1 (racemic)"
result = "Not Active"

[[record]]
compound = "CC(C)(CCO)NCc1ccc2oc3cc(Cl)ccc3c(=O)c2c1"
result = "Not Active"

[[record]]
compound = "CC(CCl)NCc1ccc2oc3cc(Cl)ccc3c(=O)c2c1.Cl (racemic)"
result = "Not Active"

[[record]]
compound = "C[C@H](CO)NCc1ccc2oc3cc(Cl)ccc3c(=O)c2c1"
result = "Not Active"

[[record]]
compound = "C[C@@H](CO)NCc1ccc2oc3cc(Cl)ccc3c(=O)c2c1"
result = "Not Active"

[[record]]
compound = "CC[C@@H](CO)NCc1ccc2oc3cc(Cl)ccc3c(=O)c2c1"
result = "Not Active"

[[record]]
compound = "Cl.O=c1c2ccc(Cl)cc2oc2ccc(CNCCCO)cc12"
result = "Not Active"

[[record]]
compound = "CCN(CCO)Cc1ccc2oc3cc(Cl)ccc3c(=O)c2c1"
result = "Not Active"


====

system: Mus musculus; experiment: Anticonvulsant activity against maximal electroshock-induced seizures in ip dosed mouse; assay type: functional
# ED50 listing for each entry below
RECORDED ENDPOINT: ED50 (mg/kg)

[[record]]
item_smiles = "CC[C@@H](CO)NCCOc1c(C)cccc1C"
recorded_endpoint = "ED50"
result_number = 7.57

[[record]]
item_smiles = "O=C1NC(=O)C(c2ccccc2)(c2ccccc2)N1"
recorded_endpoint = "ED50"
result_number = 6.48

[[record]]
item_smiles = "C[C@H](CO)NCc1ccc2oc3cc(Cl)ccc3c(=O)c2c1"
recorded_endpoint = "ED50"
result_number = 77.4

[[record]]
item_smiles = "C[C@@H](CO)NCc1ccc2oc3cc(Cl)ccc3c(=O)c2c1"
recorded_endpoint = "ED50"
result_number = 73

